molecular target: human CB2 (Homo sapiens (Human), UniProt P34972); assay: In vitro cannabinoid receptor activity assay (calcium mobilization, FLIPR) in CHO cells expressing human CB2 and Gαq16; settings: CHO cells, hCB2, calcium fluorescence; read-out: hCB2 Ca EC50
pEC50: −log10 of the molar value.
Assign class by pEC50: not lower than 7 means yes (1); lower than 7 means no (0).

[
  {
    "Compound": "C[C@H](NC(=O)c1nn(Cc2ccc(F)cc2)c2ccccc12)c1cccc(C(N)=O)c1 [Example 11]",
    "Qualitative Label": "yes (1)"
  },
  {
    "Compound": "CCCCCn1nc(C(=O)NC(C)(C)c2cccc(NC(=O)NC)c2)c2ccccc21 [Example 27]",
    "Qualitative Label": "no (0)"
  },
  {
    "Compound": "CC(C)(NC(=O)c1nn(CCCCCF)c2ccccc12)c1cccc(NC(N)=O)c1 [Example 25]",
    "Qualitative Label": "no (0)"
  },
  {
    "Compound": "CC(C)(NC(=O)c1nn(Cc2ccc(F)cc2)c2ccccc12)c1cccc(C(N)=O)c1 [Example 12]",
    "Qualitative Label": "yes (1)"
  },
  {
    "Compound": "CC(C)(NC(=O)c1nn(CCCCC(F)(F)F)c2ccccc12)c1cccc(C(N)=O)c1 [Example 19]",
    "Qualitative Label": "no (0)"
  },
  {
    "Compound": "CCCCCn1nc(C(=O)NC(C)(C)c2cccc(NC(N)=O)c2)c2ccccc21 [Example 24]",
    "Qualitative Label": "no (0)"
  },
  {
    "Compound": "CC(C)(NC(=O)c1nn(CC2CCC(F)(F)CC2)c2ccccc12)c1cccc(C(N)=O)c1 [Example 15]",
    "Qualitative Label": "yes (1)"
  },
  {
    "Compound": "CNC(=O)Nc1cccc(C(C)(C)NC(=O)c2nn(CC3CCC(F)(F)CC3)c3ccccc23)c1 [Example 26]",
    "Qualitative Label": "yes (1)"
  },
  {
    "Compound": "CC(c1ccc(F)cc1)n1nc(C(=O)NC(C)(C)c2cccc(C(N)=O)c2)c2ccccc21 (centres unmarked) [Example 14]",
    "Qualitative Label": "no (0)"
  }
]
